Values were extracted from PubChem BioAssay AID2060907.

- System: 388556-164-R-J1-PDC complex spheroid viability;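 also: spheroids exposed to compound for 7 days before readout; 100% = DMSO vehicle control luminescence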
- procedure_details: Anticancer human tumor 388556-164-R-J1-PDC patient-derived colon adenocarcinoma cell line growth inhibition [RAS]
- condition_details: compound 0.316 µM; hits give low values
Listed here are compounds together with their documented viability, T/C.

compound: C#Cc1c(F)ccc2cc(O)cc(-c3ncc4c(N5CC6CCC(C5)N6)nc(OCC56CCCN5CC(F)C6)nc4c3F)c12 (stereo not given)
test_result: 95.4% [middle of 8 runs]
//
compound: CC(Nc1ccc2c(c1)OCCn1cc(N3C(=O)OCC3C(F)F)nc1-2)C(N)=O (stereo not given)
test_result: 88.6% [middle of 4 runs]
//
compound: O=C(c1ccc(F)c(F)c1Nc1ccc(I)cc1F)N1CC(O)([C@@H]2CCCCN2)C1
test_result: 40.9% [middle of 4 runs]
//
compound: NC1c2ccccc2OC12CCN(c1cnc3c(N4CCCc5ncccc54)n[nH]c3n1)CC2 (stereo not given)
test_result: 48.8% [middle of 4 runs]

Kindly review the next compound as well.
Enquiry: Requested read-out: viability, T/C. Entry: C=CC(=O)N1CCN(c2nc(OCC3CCCN3C)nc3c(F)c(-c4nc(N)cc(C)c4C(F)(F)F)c(Cl)cc23)C(C)C1 (stereo not given)
Return: 102% [middle of 11 runs]
